FYI, the data here is from patent US12227495B2.

Tested on: Echinochloa crus-galli (ECHCG)
test: Pre-emergence herbicide test, glasshouse, percentage damage
Type: in vivo
assay.context: rate 1000 g/ha, evaluated after 13 days
value.kind: Pre-emergence Test ECHCG percentage damage (five point scale)

For the compound N#Cc1cccc(Oc2ccc(Cl)cn2)c1-c1cc(C(F)F)no1 , give its measured Pre-emergence Test ECHCG percentage damage (five point scale) value.
5 (5=81-100%)

For the compound Fc1cnc(Oc2cccc(Br)c2-c2cc(C(F)F)no2)c(F)c1 , give its measured Pre-emergence Test ECHCG percentage damage (five point scale) value.
5 (5=81-100%)

For the compound COc1cccc(Oc2ncc(Cl)cc2F)c1-n1cc(C(F)(F)F)cn1 , give its measured Pre-emergence Test ECHCG percentage damage (five point scale) value.
5 (5=81-100%)

For the compound N#Cc1cnn(-c2ccccc2Oc2ncc(Cl)cc2F)c1 , give its measured Pre-emergence Test ECHCG percentage damage (five point scale) value.
5 (5=81-100%)

For the compound Fc1cc(Br)cnc1Oc1cccc(Cl)c1-c1cc(C(F)F)no1 , give its measured Pre-emergence Test ECHCG percentage damage (five point scale) value.
5 (5=81-100%)

###

In this section we review reported percentage damage caused to the plant, AMARE values for a set of molecules.
Tested on: Amaranthus retoflexus (AMARE)
test: Post-emergence herbicide test, glasshouse, percentage damage
Format: in vivo
assay.context: 500 g/ha, evaluated after 13 days

Observe how each entry below is paired with its result.
Fc1cnc(Oc2cccc(F)c2-c2cc(C(F)F)no2)c(F)c1 [Compound A10] | 5 (5=81-100%)
Fc1cccc(Oc2ncc(Cl)cc2Cl)c1-c1cc(C(F)F)no1 [Compound A4] | 5 (5=81-100%)
Fc1cccc(Oc2cc(C(F)(F)F)ccn2)c1-c1cc(C(F)F)no1 [Compound A8] | 2 (2=21-40%)
N#Cc1ccc(Oc2cccc(F)c2-c2cc(C(F)F)no2)nc1 [Compound A12] | 5 (5=81-100%)

Note: attention shifts to another entry.
For the molecule O=[N+]([O-])c1ccc(Oc2cccc(F)c2-c2cc(C(F)F)no2)nc1 [Compound A2] , give its measured percentage damage caused to the plant, AMARE value.
5 (5=81-100%)

###

In this section we review reported Pre-emergence Test LOLPE percentage damage (five point scale) values for a set of molecules.
Tested on: Lolium perenne (LOLPE)
test: Pre-emergence herbicide test, glasshouse, percentage damage
Type: in vivo
assay.context: rate 1000 g/ha, evaluated after 13 days

Observe how each entry below is paired with its result.
FC(F)c1cc(-c2c(Cl)cccc2Oc2ccc(Cl)cn2)on1 | 5 (5=81-100%)
N#Cc1cc(Cl)cnc1Oc1cccc(F)c1-c1cc(C(F)F)no1 | 5 (5=81-100%)
O=[N+]([O-])c1ccc(Oc2ccccc2-n2cc(C(F)(F)F)cn2)nc1 | 5 (5=81-100%)
Fc1cccc(Oc2ncc(C(F)(F)F)cc2Cl)c1-c1cc(C(F)F)no1 | 1 (1=0-20%)
O=[N+]([O-])c1cnc(Oc2cccc(F)c2-c2cc(C(F)F)no2)c(F)c1 | 1 (1=0-20%)
COc1csc(-c2ccccc2Oc2ncc(Cl)cc2F)c1 | 1 (1=0-20%)
N#Cc1ccnc(Oc2cccc(Cl)c2-c2cc(C(F)F)no2)c1 | 4 (4=61-80%)
Fc1cc(Cl)cnc1Oc1ccccc1-c1cc(C(F)F)no1 | 5 (5=81-100%)

Note: attention shifts to another entry.
For the molecule FC(F)(F)c1ccc(Oc2ccccc2-n2cc(C(F)(F)F)cn2)nc1 , give its measured Pre-emergence Test LOLPE percentage damage (five point scale) value.
3 (3=41-60%)
